# PROTOCOL_SUMMARY: Chemical stability in pH 5.7 buffer at room temperature after 1 day
# Assay type: physicochemical
# APPLIED_CONDITIONS: pH 5.7 buffer, pH 5.7; read-out: Stability
REPORTED_PROPERTY: remaining at 24 h (%)
The figure you give is taken to be in %; do not add the unit.

Example cases with answers are listed next.
COMPOUND: COc1cc(COC(=O)CCCCCO[N+](=O)[O-])cc(OC)c1C(=O)O[C@@H](CNC(C)(C)C)COc1nsnc1N1CCOCC1.O=C(O)/C=C\C(=O)O
remaining at 24 h [%]: 100
--
COMPOUND: COc1cc(COC(=O)COCCOCCO[N+](=O)[O-])c(C(=O)O[C@@H](CNC(C)(C)C)COc2nsnc2N2CCOCC2)c(OC)c1.O=C(O)/C=C\C(=O)O
remaining at 24 h [%]: 98.8
--
COMPOUND: COc1cc(OCCO[N+](=O)[O-])ccc1C(=O)O[C@@H](CNC(C)(C)C)COc1nsnc1N1CCOCC1
remaining at 24 h [%]: 98.6
--
COMPOUND: COc1cc(COC(=O)CCCCCO[N+](=O)[O-])c(C(=O)O[C@@H](CNC(C)(C)C)COc2nsnc2N2CCOCC2)c(OC)c1.O=C(O)/C=C\C(=O)O
remaining at 24 h [%]: 99.6
--
COMPOUND: COc1cccc(C(=O)O[C@@H](CNC(C)(C)C)COc2nsnc2N2CCOCC2)c1OCCO[N+](=O)[O-].O=C(O)/C=C\C(=O)O
remaining at 24 h [%]: 96
--
COMPOUND: CC(C)(C)NC[C@@H](COc1nsnc1N1CCOCC1)OC(=O)c1ccccc1
remaining at 24 h [%]: 96

Any idea what its remaining at 24 h is? The compound is COc1cc(COC(=O)CCCO[N+](=O)[O-])c(C(=O)O[C@@H](CNC(C)(C)C)COc2nsnc2N2CCOCC2)c(OC)c1.O=C(O)/C=C\C(=O)O
96.5

remaining at 24 h lookup needed for COc1cc(COCCO[N+](=O)[O-])ccc1C(=O)O[C@@H](CNC(C)(C)C)COc1nsnc1N1CCOCC1 , thanks.
96.7

Endpoint output: remaining at 24 h of CC(C)(C)NC[C@@H](COc1nsnc1N1CCOCC1)OC(=O)c1ccc(OCCO[N+](=O)[O-])cc1OCCO[N+](=O)[O-] . Value?
97.9

Looking for the measured remaining at 24 h of COc1cc(COC(=O)CCOCC(CO[N+](=O)[O-])O[N+](=O)[O-])c(C(=O)O[C@@H](CNC(C)(C)C)COc2nsnc2N2CCOCC2)c(OC)c1.O=C(O)/C=C\C(=O)O (some centres undefined) , can you help?
97.3

Look up remaining at 24 h for this compound: COc1cc(COC(=O)C(C)(C)CO[N+](=O)[O-])c(C(=O)O[C@@H](CNC(C)(C)C)COc2nsnc2N2CCOCC2)c(OC)c1.O=C(O)/C=C\C(=O)O
98.4

# query: remaining at 24 h of entry CC(C)(C)NC[C@@H](COc1nsnc1N1CCOCC1)OC(=O)c1ccccc1OCCO[N+](=O)[O-].O=C(O)/C=C\C(=O)O
96.5

For COc1cccc(OCCO[N+](=O)[O-])c1C(=O)O[C@@H](CNC(C)(C)C)COc1nsnc1N1CCOCC1.O=C(O)/C=C\C(=O)O , what is its reported remaining at 24 h?
99.8

Which value of remaining at 24 h has been reported for COc1cc(OCCO[N+](=O)[O-])cc(C)c1C(=O)O[C@@H](CNC(C)(C)C)COc1nsnc1N1CCOCC1.O=C(O)/C=C\C(=O)O in the records?
101

This collection of values is drawn from ChEMBL document CHEMBL1151861.
